Reference for the values: ChEMBL document CHEMBL1132410

The listing below reports IC50 for molecules tested on Cytochrome P450 1A2 (Homo sapiens).
Sequence (P05177 whole entry): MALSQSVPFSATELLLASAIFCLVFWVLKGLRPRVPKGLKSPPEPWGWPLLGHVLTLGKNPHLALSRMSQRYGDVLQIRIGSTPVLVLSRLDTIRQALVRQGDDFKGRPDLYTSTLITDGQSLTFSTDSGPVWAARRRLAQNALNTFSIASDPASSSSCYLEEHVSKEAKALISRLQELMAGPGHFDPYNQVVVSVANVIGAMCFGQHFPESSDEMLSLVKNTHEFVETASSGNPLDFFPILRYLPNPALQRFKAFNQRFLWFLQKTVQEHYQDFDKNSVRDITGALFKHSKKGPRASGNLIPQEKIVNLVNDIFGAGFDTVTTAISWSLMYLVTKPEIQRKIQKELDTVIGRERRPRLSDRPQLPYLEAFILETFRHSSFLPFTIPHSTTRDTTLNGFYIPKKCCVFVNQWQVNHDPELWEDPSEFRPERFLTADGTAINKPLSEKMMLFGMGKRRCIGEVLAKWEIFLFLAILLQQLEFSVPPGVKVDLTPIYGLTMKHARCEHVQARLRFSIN
# unit: µM | format: bare number

Mol: COc1ccc(NS(=O)(=O)c2ccc(Br)cc2)cc1N1CCN(C)CC1
Measurement Unit: µM
Experimental Result: 10

# input for lookup
Inquiry: I would be grateful if you could share the reported IC50 for COc1ccc(NS(=O)(=O)c2sc3ccc(Cl)cc3c2C)cc1N1CCNCC1 .
Reply text: 66

###

Target: 5-hydroxytryptamine receptor 1B (Homo sapiens)
Sequence (P28222 whole entry): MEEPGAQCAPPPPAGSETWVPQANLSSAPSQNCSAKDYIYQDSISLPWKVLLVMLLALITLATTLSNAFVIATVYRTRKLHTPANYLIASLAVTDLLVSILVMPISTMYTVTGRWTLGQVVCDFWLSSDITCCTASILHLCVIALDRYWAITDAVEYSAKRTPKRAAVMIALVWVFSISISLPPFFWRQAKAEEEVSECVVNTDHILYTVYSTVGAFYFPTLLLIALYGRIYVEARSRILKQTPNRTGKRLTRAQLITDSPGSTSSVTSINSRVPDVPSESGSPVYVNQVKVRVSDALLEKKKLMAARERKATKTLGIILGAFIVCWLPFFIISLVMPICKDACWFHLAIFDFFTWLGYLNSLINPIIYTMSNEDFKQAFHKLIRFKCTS
Test: Compound was tested for its binding affinity against human cloned 5-hydroxytryptamine 1B receptor in CHO cells using [3H]5-HT
Metric: Ki (µM)
# unit: µM | format: bare number

Mol: COc1ccc(NS(=O)(=O)c2sc3ccc(Cl)cc3c2C)cc1N1CCN(C)CC1
Metric: Ki
Measurement Unit: µM
Experimental Result: 0.794

Inquiry: I would be grateful if you could share the reported Ki for COc1ccc(NS(=O)(=O)c2ccc(Br)cc2)cc1N1CCN(C)CC1 .
Reply text: 0.398

Inquiry: I would be grateful if you could share the reported Ki for COc1ccc(NS(=O)(=O)c2sc3ccc(Cl)cc3c2C)cc1N1CCNCC1 .
Reply text: 0.794

###

Catalogue of compounds with associated Ki
Target: D(3) dopamine receptor (Homo sapiens, UniProt P35462)
Sequence (P35462 whole entry): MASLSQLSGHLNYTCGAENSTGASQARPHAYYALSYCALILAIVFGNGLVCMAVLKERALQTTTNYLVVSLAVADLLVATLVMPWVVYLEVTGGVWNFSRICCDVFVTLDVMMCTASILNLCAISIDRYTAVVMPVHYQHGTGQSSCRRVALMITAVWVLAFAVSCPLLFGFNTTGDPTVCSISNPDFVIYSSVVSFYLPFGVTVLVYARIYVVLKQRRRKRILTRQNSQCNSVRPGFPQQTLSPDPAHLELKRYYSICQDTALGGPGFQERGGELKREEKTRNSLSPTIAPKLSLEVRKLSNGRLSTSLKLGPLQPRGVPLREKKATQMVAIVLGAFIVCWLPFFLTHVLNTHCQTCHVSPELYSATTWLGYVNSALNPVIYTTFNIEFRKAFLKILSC
Assay: Compound was tested for its binding affinity against Dopamine receptor D3 in human cloned receptors in CHO cells using [125 I]iodosulpride
# unit: nM | format: bare number

Mol: COc1ccc(NS(=O)(=O)c2ccc(Br)cc2)cc1N1CCN(C)CC1
Target Under Test: D(3) dopamine receptor (Homo sapiens, UniProt P35462)
Experimental Result: 794

# input for lookup
Inquiry: I would be grateful if you could share the reported Ki for COc1ccc(NS(=O)(=O)c2sc3ccc(Cl)cc3c2C)cc1N1CCN(C)CC1 .
Reply text: 200

###

The listing below reports pIC50 for compounds tested on Cytochrome P450 2D6 (Homo sapiens).
Sequence (P10635 whole entry): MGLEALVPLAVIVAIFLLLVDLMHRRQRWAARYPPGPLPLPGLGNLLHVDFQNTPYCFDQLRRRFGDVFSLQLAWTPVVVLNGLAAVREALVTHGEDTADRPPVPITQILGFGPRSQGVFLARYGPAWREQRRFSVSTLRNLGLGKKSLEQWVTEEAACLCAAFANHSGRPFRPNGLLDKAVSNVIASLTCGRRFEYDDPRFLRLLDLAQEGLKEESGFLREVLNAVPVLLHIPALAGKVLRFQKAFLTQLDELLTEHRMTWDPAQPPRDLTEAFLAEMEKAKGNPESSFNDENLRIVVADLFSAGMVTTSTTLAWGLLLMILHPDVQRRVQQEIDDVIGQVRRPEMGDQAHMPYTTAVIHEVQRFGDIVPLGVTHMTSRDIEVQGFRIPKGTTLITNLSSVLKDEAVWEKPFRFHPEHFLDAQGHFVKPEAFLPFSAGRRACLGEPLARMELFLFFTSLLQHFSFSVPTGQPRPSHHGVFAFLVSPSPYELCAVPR
Hey, just a heads up that pIC50 is the negative log base 10 of the concentration in molar.

Mol: COc1ccc(NS(=O)(=O)c2sc3ccc(Cl)cc3c2C)cc1N1CCNCC1
Experimental Result: 4.49

# input for lookup
Inquiry: State its pIC50 on Cytochrome P450 2D6 (Homo sapiens): COc1ccc(NS(=O)(=O)c2ccc(Br)cc2)cc1N1CCN(C)CC1
Reply text: 4.96

###

Target: UniProt:P14416
Sequence (P14416 whole entry): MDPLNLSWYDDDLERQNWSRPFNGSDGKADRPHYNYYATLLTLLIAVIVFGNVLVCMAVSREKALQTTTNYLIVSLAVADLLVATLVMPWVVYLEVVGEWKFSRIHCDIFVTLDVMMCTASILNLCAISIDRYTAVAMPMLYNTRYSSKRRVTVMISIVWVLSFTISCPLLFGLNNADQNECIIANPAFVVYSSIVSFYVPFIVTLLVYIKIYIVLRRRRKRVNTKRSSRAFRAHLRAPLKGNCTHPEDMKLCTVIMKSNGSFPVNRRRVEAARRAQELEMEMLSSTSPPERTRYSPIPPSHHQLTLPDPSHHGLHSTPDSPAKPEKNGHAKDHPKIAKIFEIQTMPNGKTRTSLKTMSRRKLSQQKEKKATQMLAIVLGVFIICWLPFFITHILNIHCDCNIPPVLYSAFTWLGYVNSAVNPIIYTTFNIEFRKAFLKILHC
Test: Compound was tested for its binding affinity against Dopamine receptor D2 in human cloned receptors in CHO cells using [125 I]iodosulpride
Catalogue of compounds with associated Ki
# unit: µM | format: bare number

Mol: COc1ccc(NS(=O)(=O)c2sc3ccc(Cl)cc3c2C)cc1N1CCNCC1
Measurement Unit: µM
Ki: 2.51
--
Mol: COc1ccc(NS(=O)(=O)c2ccc(Br)cc2)cc1N1CCN(C)CC1
Measurement Unit: µM
Ki: 3.98

Inquiry: State its Ki on UniProt:P14416: COc1ccc(NS(=O)(=O)c2sc3ccc(Cl)cc3c2C)cc1N1CCN(C)CC1
Reply text: 0.794

###

Catalogue of compounds with associated IC50
Target: Cytochrome P450 2C19 (Homo sapiens, UniProt P33261)
Sequence (P33261 whole entry): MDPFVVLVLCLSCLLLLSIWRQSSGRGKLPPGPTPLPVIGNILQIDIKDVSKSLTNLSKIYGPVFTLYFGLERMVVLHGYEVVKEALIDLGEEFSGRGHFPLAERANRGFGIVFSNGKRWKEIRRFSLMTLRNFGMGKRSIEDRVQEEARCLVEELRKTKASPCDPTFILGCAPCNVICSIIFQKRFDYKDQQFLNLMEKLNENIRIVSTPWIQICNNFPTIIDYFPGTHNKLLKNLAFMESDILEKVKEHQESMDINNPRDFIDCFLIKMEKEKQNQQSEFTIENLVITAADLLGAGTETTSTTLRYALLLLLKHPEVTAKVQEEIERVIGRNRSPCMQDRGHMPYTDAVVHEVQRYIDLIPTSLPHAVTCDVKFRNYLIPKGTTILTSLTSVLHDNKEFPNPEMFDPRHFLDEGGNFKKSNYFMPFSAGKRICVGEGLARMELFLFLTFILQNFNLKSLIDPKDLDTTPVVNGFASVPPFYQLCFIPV
The answer consists of two parts: a number and, after it, its unit.

Mol: COc1ccc(NS(=O)(=O)c2sc3ccc(Cl)cc3c2C)cc1N1CCNCC1
IC50: 26 µM

Inquiry: State its IC50 on Cytochrome P450 2C19 (Homo sapiens, UniProt P33261): COc1ccc(NS(=O)(=O)c2ccc(Br)cc2)cc1N1CCN(C)CC1
Reply text: 46 µM

###

Catalogue of compounds with associated Selectivity
Species: Homo sapiens
Assay: Selectivity for 5-HT6 receptors with respect to the 5-HT1A, 5-HT1B, 5-HT1D, 5-HT1E, 5-HT1F, 5-HT2A, 5-HT2B, 5-HT2C, 5-HT4, 5-HT7, Alpha-1B, D2, D3 receptors.

// known answers, use as guide
Mol: COc1ccc(NS(=O)(=O)c2c(F)c(Br)cc(F)c2Br)cc1N1CCN(C)CC1
Experimental Result: > 300
//
Mol: COc1ccc(NS(=O)(=O)c2cc(I)ccc2C)cc1N1CCN(C)CC1
Experimental Result: > 125
//
Mol: COc1ccc(NS(=O)(=O)c2cc(Cl)cc(Cl)c2)cc1N1CCN(C)CC1
Experimental Result: > 100
//
Mol: COc1ccc(NS(=O)(=O)c2cccc(I)c2)cc1N1CCN(C)CC1
Experimental Result: > 200
//
Mol: COc1ccc(NS(=O)(=O)c2ccccc2)cc1N1CCN(C)CC1
Experimental Result: 80

# input for lookup
Inquiry: I would be grateful if you could share the reported Selectivity for COc1ccc(NS(=O)(=O)c2ccc3c(Cl)cccc3c2)cc1N1CCN(C)CC1 .
Reply text: > 250
